- Target: Glucocorticoid receptor (Homo sapiens) (UniProt P04150)
- Sequence (whole entry): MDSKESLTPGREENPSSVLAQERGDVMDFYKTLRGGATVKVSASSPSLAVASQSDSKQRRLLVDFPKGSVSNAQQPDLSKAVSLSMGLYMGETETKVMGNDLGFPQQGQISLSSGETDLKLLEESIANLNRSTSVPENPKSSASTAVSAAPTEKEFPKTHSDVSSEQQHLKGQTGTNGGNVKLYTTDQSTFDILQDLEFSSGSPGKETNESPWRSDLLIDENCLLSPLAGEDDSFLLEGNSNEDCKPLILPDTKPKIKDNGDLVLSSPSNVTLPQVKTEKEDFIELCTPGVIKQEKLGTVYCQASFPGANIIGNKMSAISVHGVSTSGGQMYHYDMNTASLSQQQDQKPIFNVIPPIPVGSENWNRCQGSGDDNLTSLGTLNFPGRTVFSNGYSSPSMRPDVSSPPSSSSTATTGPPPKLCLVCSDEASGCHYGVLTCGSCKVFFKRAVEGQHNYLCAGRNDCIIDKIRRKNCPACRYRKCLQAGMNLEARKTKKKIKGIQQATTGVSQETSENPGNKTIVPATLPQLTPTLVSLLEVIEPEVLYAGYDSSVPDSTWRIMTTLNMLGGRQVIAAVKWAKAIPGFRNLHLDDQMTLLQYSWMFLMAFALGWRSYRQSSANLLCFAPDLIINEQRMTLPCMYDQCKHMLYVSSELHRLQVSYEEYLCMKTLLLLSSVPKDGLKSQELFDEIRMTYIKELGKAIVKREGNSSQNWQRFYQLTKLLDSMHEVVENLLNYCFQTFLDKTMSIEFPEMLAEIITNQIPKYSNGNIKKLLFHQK
- Protocol: Transactivation activity of glucocorticoid receptor ligand binding domain expressed in human NP-1 Hela cells co-expressing GAL4 DNA binding domain by luciferase reporter gene assay relative to Dexamethasone
- Type: cell-based
Recorded endpoint: Efficacy (%)
Give the number; % is assumed, so skip it.

Below, 4 molecules whose answers are already recorded.
[
  {
    "Smiles string": "CC(C)(C(=O)Nc1nccs1)[C@@H](c1ccccc1)c1ccc(O)c(Br)c1",
    "Output unit": "%",
    "Efficacy": 48
  },
  {
    "Smiles string": "CC(C)(C(=O)Nc1nccs1)[C@@H](c1ccccc1)c1ccc(O)cc1",
    "Output unit": "%",
    "Efficacy": 21
  },
  {
    "Smiles string": "CC(C)(C(=O)Nc1nncs1)[C@H]1c2ccccc2Oc2cc(O)ccc21",
    "Output unit": "%",
    "Efficacy": 46
  },
  {
    "Smiles string": "CC(C)(C(=O)Nc1nccs1)[C@H]1c2ccccc2Oc2cc(O)ccc21",
    "Output unit": "%",
    "Efficacy": 30
  }
]

stdin: Return Efficacy for the following molecule: "CC(C)(C(=O)Nc1nncs1)[C@@H](c1ccccc1)c1ccc(O)c(Br)c1"
stdout: 54

---

- Protocol: Selectivity ratio of Ki of GRapha to Ki of androgen receptor
// Ratio Ki lookup, one value per entry

Below, 4 compounds whose answers are already recorded.
[
  {
    "Smiles string": "CC(C)(C(=O)Nc1nccs1)[C@@H](c1ccccc1)c1ccc(O)c(Br)c1",
    "Test result": "> 870"
  },
  {
    "Smiles string": "CC(C)(C(=O)Nc1nncs1)[C@H]1c2ccccc2Oc2cc(O)ccc21",
    "Test result": "> 870"
  },
  {
    "Smiles string": "CC(C)(C(=O)Nc1nccs1)[C@H]1c2ccccc2Oc2cc(O)ccc21",
    "Test result": "> 870"
  },
  {
    "Smiles string": "CC(C)(C(=O)Nc1nccs1)[C@@H](c1ccccc1)c1ccc(O)c(F)c1",
    "Test result": "> 870"
  }
]

Moving on to another compound below.
stdin: Note Ratio Ki for the compound shown: "CC(C)(C(=O)Nc1nccs1)[C@@H](c1ccccc1)c1ccc(O)cc1"
stdout: > 870

---

Overview of reported Ki across a group of compounds:
- Target: Glucocorticoid receptor (Homo sapiens, UniProt P04150)
- Sequence (P04150 whole entry): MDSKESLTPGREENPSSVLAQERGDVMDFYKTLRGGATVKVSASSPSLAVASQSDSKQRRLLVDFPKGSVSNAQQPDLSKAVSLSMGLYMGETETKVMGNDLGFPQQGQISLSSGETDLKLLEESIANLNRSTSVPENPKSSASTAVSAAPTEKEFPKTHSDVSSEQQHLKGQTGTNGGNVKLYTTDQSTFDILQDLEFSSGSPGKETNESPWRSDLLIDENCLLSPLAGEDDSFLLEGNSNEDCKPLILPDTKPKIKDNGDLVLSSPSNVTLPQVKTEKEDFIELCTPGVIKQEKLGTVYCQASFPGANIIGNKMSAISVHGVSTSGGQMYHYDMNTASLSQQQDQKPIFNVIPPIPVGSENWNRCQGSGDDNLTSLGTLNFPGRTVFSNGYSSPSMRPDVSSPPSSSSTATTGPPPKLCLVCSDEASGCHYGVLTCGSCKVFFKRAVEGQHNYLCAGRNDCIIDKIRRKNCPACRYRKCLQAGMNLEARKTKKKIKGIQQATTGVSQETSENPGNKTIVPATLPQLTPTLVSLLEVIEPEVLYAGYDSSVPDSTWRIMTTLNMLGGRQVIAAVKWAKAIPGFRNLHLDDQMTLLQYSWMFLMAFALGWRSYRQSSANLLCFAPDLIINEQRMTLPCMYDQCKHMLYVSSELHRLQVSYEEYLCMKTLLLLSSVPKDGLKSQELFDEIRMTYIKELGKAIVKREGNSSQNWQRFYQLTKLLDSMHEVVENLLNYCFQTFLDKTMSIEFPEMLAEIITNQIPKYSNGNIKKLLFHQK
Your answer should be a plain number; it is taken to be in nM.

Consider the reported Ki for these compounds:
[
  {
    "Compound": "CC(C)(C(=O)Nc1nccs1)[C@H]1c2ccccc2Oc2cc(O)ccc21",
    "Output unit": "nM",
    "Ki": 0.3
  },
  {
    "Compound": "CC(C)(C(=O)Nc1nccs1)[C@@H](c1ccccc1)c1ccc(O)c(Br)c1",
    "Output unit": "nM",
    "Ki": 0.4
  },
  {
    "Compound": "CC(C)(C(=O)Nc1nccs1)[C@@H](c1ccccc1)c1ccc(O)c(F)c1",
    "Output unit": "nM",
    "Ki": 0.7
  },
  {
    "Compound": "CC(C)(C(=O)Nc1nncs1)C1c2ccccc2Oc2ccccc21",
    "Output unit": "nM",
    "Ki": 6
  },
  {
    "Compound": "CC(C)(C(=O)Nc1nccs1)C(c1ccccc1)c1ccc(O)cc1 (racemic)",
    "Output unit": "nM",
    "Ki": 2.5
  }
]

Here is the next item to consider.
stdin: Indicate its recorded Ki; the compound in question is "CC(C)(C(=O)Nc1nncs1)[C@H]1c2ccccc2Oc2cc(O)ccc21"
stdout: 0.8

---

Quick reference: EC50 of the listed items.
- Target: Glucocorticoid receptor (Homo sapiens)
- Protocol: Transactivation activity at glucocorticoid receptor in human 13D3/Huh7 cells assessed as induction of tyrosine aminotransferase activity after 24 hrs
- Format: cell-based, Huh-7
All answers are understood in nM, so give the number only.

Example entries begin here.
[
  {
    "Compound": "CC(C)(C(=O)Nc1nccs1)[C@@H](c1ccccc1)c1ccc(O)c(Br)c1",
    "EC50 [nM]": 142
  },
  {
    "Compound": "CC(C)(C(=O)Nc1nccs1)[C@H]1c2ccccc2Oc2cc(O)ccc21",
    "EC50 [nM]": 27.1
  },
  {
    "Compound": "CC(C)(C(=O)Nc1nccs1)[C@@H](c1ccccc1)c1ccc(O)c(F)c1",
    "EC50 [nM]": 36.1
  },
  {
    "Compound": "CC(C)(C(=O)Nc1nccs1)[C@@H](c1ccccc1)c1ccc(O)cc1",
    "EC50 [nM]": 251
  },
  {
    "Compound": "CC(C)(C(=O)Nc1nncs1)[C@@H](c1ccccc1)c1ccc(O)c(Br)c1",
    "EC50 [nM]": 46.5
  }
]

stdin: Please give the documented EC50 of CC(C)(C(=O)Nc1nccs1)C(c1ccccc1)c1ccc(O)c(F)c1 (racemic)
stdout: 197

stdin: Answer with the recorded EC50 for the compound listed here: "CC(C)(C(=O)Nc1nncs1)[C@H]1c2ccccc2Oc2cc(O)ccc21"
stdout: 91.3

stdin: Return reported EC50. Input compound: CC(C)(C(=O)Nc1nccs1)C(c1ccccc1)c1ccc(O)cc1 (racemic)
stdout: 2580

stdin: Hello, please tell me recorded EC50 for this one: "CC(=O)c1cc([C@H](c2ccccc2)C(C)(C)C(=O)Nc2nccs2)ccc1O"
stdout: 2320

---

- Target: Glucocorticoid receptor (Homo sapiens, UniProt P04150)
- Sequence (P04150 whole entry): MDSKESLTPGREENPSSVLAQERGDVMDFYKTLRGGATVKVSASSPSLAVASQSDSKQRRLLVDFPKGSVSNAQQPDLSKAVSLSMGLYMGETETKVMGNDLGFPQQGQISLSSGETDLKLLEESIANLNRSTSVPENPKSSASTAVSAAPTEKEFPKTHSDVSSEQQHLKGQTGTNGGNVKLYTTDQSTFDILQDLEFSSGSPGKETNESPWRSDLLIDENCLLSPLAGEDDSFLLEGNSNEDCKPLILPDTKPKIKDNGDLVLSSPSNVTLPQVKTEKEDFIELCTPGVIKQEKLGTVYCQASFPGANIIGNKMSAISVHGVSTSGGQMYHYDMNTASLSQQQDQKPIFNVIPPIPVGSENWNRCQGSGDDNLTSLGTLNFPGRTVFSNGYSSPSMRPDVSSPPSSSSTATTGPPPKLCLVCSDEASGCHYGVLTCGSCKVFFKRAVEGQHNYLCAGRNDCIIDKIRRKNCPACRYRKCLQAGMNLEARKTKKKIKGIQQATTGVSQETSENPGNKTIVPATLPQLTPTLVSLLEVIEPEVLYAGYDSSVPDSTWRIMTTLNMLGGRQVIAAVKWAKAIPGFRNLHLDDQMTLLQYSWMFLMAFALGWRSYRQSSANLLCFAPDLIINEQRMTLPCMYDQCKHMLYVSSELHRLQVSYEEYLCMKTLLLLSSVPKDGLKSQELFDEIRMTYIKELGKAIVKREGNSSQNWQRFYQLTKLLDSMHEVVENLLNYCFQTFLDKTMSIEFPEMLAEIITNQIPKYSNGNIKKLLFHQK
- Protocol: Transrepression activity of glucocorticoid receptor in human A549 cells expressing AP-1 assessed as inhibition of PMA-induced AP-1 activity by luciferase reporter gene assay
- Format: cell-based
The entries below come with measured EC50 values attached.

[
  {
    "Compound": "CC(C)(C(=O)Nc1nncs1)C1c2ccccc2Oc2ccccc21",
    "Target": "Glucocorticoid receptor (Homo sapiens, UniProt P04150)",
    "Test result": "> 5000 nM"
  },
  {
    "Compound": "CC(C)(C(=O)Nc1nccs1)[C@H](c1ccccc1)c1ccc(O)cc1",
    "Target": "Glucocorticoid receptor (Homo sapiens, UniProt P04150)",
    "Test result": "> 10000 nM"
  },
  {
    "Compound": "CC(C)(C(=O)Nc1nccs1)[C@@H](c1ccccc1)c1ccc(O)cc1",
    "Target": "Glucocorticoid receptor (Homo sapiens, UniProt P04150)",
    "Test result": "40.9 nM"
  }
]

stdin: Return reported EC50. Input compound: "CC(C)(C(=O)Nc1nccs1)[C@H](c1ccccc1)c1ccc(O)c(F)c1"
stdout: > 10000 nM

stdin: Give the reported value of EC50 for this record: "CC(=O)c1cc([C@H](c2ccccc2)C(C)(C)C(=O)Nc2nccs2)ccc1O"
stdout: > 10000 nM

stdin: Using known records, supply EC50 for "CC(C)(C(=O)Nc1nncs1)[C@@H](c1ccccc1)c1ccc(O)c(Br)c1"
stdout: 12.7 nM

stdin: Annotate the compound "CC(C)(C(=O)Nc1nncs1)[C@@H]1c2ccccc2Oc2cc(O)ccc21" with its measured EC50.
stdout: > 5000 nM

stdin: Let me know recorded EC50 for CC(C)(C(=O)Nc1nccs1)C(c1ccccc1)c1ccc(O)c(F)c1 (racemic) , thanks.
stdout: 51.1 nM
